Data credit: PubChem BioAssay (NCI)

- System: HOP-62 NSCLC
- test-details: NCI tumour cell line growth inhibition, 48 h; in the data active means GI50 below about 0.43 µM; inactive means the rest
// one of active, inactive, no free text

compound: N#CC(NC(=O)CCl)=C(Cl)Cl
category-label: inactive
--
compound: NC(=O)c1ncn(C2OC(CO)C(O)C2O)c1N (centres undefined)
category-label: inactive
--
compound: CC1(C)CC[C@]2(C(=O)O)CC[C@]3(C)C(=CC[C@@H]4[C@@]5(C)C/C(=C/c6ccco6)C(=O)C(C)(C)[C@@H]5CC[C@]43C)[C@@H]2C1
category-label: inactive
--
compound: OCCCCC#Cc1ccccc1C#Cc1ccc(C(F)(F)F)cc1
category-label: inactive
--
compound: COc1cc(/C=C2\C(=O)N(C)c3ccccc32)cc(OC)c1OC
category-label: inactive

Enquiry: Name the outcome recorded for "O=c1nc2[nH]c3c(-c4n[nH]c(=O)[nH]c4=O)cccc3c2n[nH]1" in the assay.
Return: inactive

Enquiry: Name the outcome recorded for "O=c1cccccc1[O-].O=c1cccccc1[O-].O=c1cccccc1[O-].[Sm+3]" in the assay.
Return: inactive

Enquiry: Name the outcome recorded for "COc1ccc(Cc2nc3cc(OC)c(OC)cc3c(=O)[nH]2)cc1" in the assay.
Return: inactive

Enquiry: Name the outcome recorded for "CCOc1ccc(Nc2nc(-c3c(C)nc4ncccn34)cs2)cc1" in the assay.
Return: active

====

- Tested on: SN12C renal
- test-details: NCI tumour cell line growth inhibition, 48 h
experimental-readout: TGI

Study these solved cases before continuing.
molecule: Cc1ccc2nc(C(=O)O)c(=O)[nH]c2c1
TGI: > 100 µM
//
molecule: COc1ccc2c(c1)CC[C@@H]1C2CC[C@]2(C)C(=C=CP(=O)(O)O)CCC12 (some centres undefined)
TGI: > 100 µM

Enquiry: Identify measured TGI corresponding to CC(=O)[C@]1(O)Cc2c(O)c3c(c(O)c2[C@@H](OC2CC(N)C(O)C(C)O2)C1)C(=O)c1c(OCc2ccccc2)cccc1C3=O (some centres undefined)
Return: 4.65 µM

Enquiry: Identify measured TGI corresponding to "S=c1[nH]n2c(COc3cc(Cl)c(OCc4nnc5sc(=S)[nH]n45)cc3Cl)nnc2s1"
Return: > 100 µM

====

- System: DU-145 prostate
- test-details: NCI tumour cell line growth inhibition, 48 h; in the data active = GI50 below about 0.43 µM; inactive = the rest
// one of t = active, f = inactive, no free text

Previously resolved entries follow.
molecule: c1cncc(C2ONC3=NCCN32)c1 (stereo not given)
category-label: f
--
molecule: CC1=C2[C@@H](CC1)[C@]1(C)O[C@@](C3CC3)(C[C@H]1OC(=O)CO)[C@H]2OC(=O)/C=C/c1ccccc1
category-label: f
--
molecule: C#CC#CC#CC#CC#CC#CC#CC#CC[C@@H]1OC[C@@H](COC(=O)O[C@@H](C(=O)O[C@H]2C[C@@]3(O)[C@@H](OC(=O)c4ccccc4)[C@@H]4[C@]5(OC(C)=O)CO[C@@H]5C[C@H](O)[C@@]4(C)C(=O)[C@H](OC(C)=O)C(=C2C)C3(C)C)[C@@H](NC(=O)c2ccccc2)c2ccccc2)O1
category-label: f
--
molecule: Nc1ncc(C2[C@H](CNC(=O)c3cc(Br)c[nH]3)C(CNC(=O)c3cc(Br)c[nH]3)[C@@H]2c2cnc(N)[nH]2)[nH]1 (stereo not given in full)
category-label: t
--
molecule: Cn1ccnc1C(=O)/C=C/c1ccc(C(=O)Nc2c(F)c(F)c(F)c(F)c2F)cc1
category-label: f

Enquiry: Name the outcome recorded for "COc1ccc(Cc2nc3cc(OC)c(OC)cc3c(=O)[nH]2)cc1" in the assay.
Return: f

Enquiry: Name the outcome recorded for "N#CCC1(n2cc(-c3ncnc4[nH]ccc34)cn2)CN(C2CCN(C(=O)c3ccnc(C(F)(F)F)c3F)CC2)C1" in the assay.
Return: f

Enquiry: Name the outcome recorded for "COc1cc(N(CCC#N)CCC#N)ccc1/C(N=Nc1ccc(C(=O)O)cc1)=N/NC(=O)c1cc(Br)ccc1O" in the assay.
Return: f

Enquiry: Name the outcome recorded for "C=CCN=C(N/N=C/c1ccc([N+](=O)[O-])o1)NS(=O)(=O)c1cc(C(=O)Nc2ccccc2)c(Cl)cc1SCC(N)=O" in the assay.
Return: f

Enquiry: Name the outcome recorded for "CNCc1ccc(-c2[nH]c3cc(F)cc4c3c2CCNC4=O)cc1" in the assay.
Return: f

Enquiry: Name the outcome recorded for "CCOc1ccc(Nc2nc(-c3c(C)nc4ncccn34)cs2)cc1" in the assay.
Return: t

Enquiry: Name the outcome recorded for "N#CC(NC(=O)CCl)=C(Cl)Cl" in the assay.
Return: f

Enquiry: Name the outcome recorded for "OCC#Cc1ccccc1C#Cc1ccc(C#Cc2ccccc2)cc1" in the assay.
Return: f

Enquiry: Name the outcome recorded for "COc1cc2cc3c(c(O)c2c(O)c1-c1c(OC)cc2cc4c(c(O)c2c1O)C(=O)O[C@H](C)C4)C(=O)O[C@H](C)C3" in the assay.
Return: f

Enquiry: Name the outcome recorded for CNCc1cccc2c1OCCOCCOCCC(C)S(=O)(=O)c1ccc(cc1)-c1cnc(N)c(n1)C(=O)N2 (stereo not given) in the assay.
Return: f

====

Reported TGI values for the following compounds.
- System: HCT-15 colon
- test-details: NCI tumour cell line growth inhibition, 48 h

Study these solved cases before continuing.
compound: Cc1cc(=O)n2nc(CSc3nnc(Sc4cc(O)ccc4O)s3)sc2n1
experimental-readout: TGI
measured: > 100 µM
--
compound: COc1ccc(N=Nc2c(N)nn3c(SC)c(C#N)c(N)nc23)cc1
experimental-readout: TGI
measured: 26.4 µM
--
compound: Cc1ccccc1Nc1nc2ccccc2nc1NS(=O)(=O)c1ccccc1
experimental-readout: TGI
measured: > 100 µM

Here's the next entry for you.
Enquiry: Identify measured TGI corresponding to "COc1cc2c(cc1OC)C(=O)/C(=C/c1ccc(N(C)C)cc1)CC2"
Return: > 10 µM

====

- System: KM12 colon
- test-details: NCI tumour cell line growth inhibition, 48 h
experimental-readout: TGI

Study these solved cases before continuing.
compound: CN(C)c1ccc(O[Si](Oc2ccc(N(C)C)cc2)(Oc2ccc(N(C)C)cc2)Oc2ccc(N(C)C)cc2)cc1
measured: > 100 µM
--
compound: CCSc1ncc(Br)c(Sc2nc(N)nc3nc[nH]c23)n1
measured: > 100 µM
--
compound: Cc1cc2c(cc1Cl)Sc1n[nH]c(=O)n1S2(=O)=O
measured: > 100 µM
--
compound: CC1=C(CNO)C2=C(C)C3(CC3)[C@@](C)(O)C(=O)C2=C1
measured: 27.4 µM

Enquiry: Identify measured TGI corresponding to COCC1N=C(c2cc(OC)c(OC)c(OC)c2-c2cc3c(cc2[C@H](C)O)OCO3)O[C@H]1c1ccccc1 (stereo not given in full)
Return: > 100 µM

====

Reported TGI values for the following molecules.
- Tested on: HCC-2998 colon
- test-details: NCI tumour cell line growth inhibition, 48 h

Study these solved cases before continuing.
molecule: O=C1CNN=C(Cn2nc(-c3ccccc3)c3ccccc3c2=O)N1
TGI: > 100 µM
--
molecule: COc1cc2c(cc1OC)C(=O)N(c1ccc(OCCN3CCCC3)cc1)C2=O
TGI: > 100 µM
--
molecule: Cc1cc2c(cc1Cl)Sc1n[nH]c(=O)n1S2(=O)=O
TGI: > 100 µM
--
molecule: NC(N)=NCCCC(NC(=O)c1c2ccccc2nc2ccccc12)C(=O)O (stereo not given)
TGI: > 100 µM
--
molecule: Nc1ncc(C2[C@H](CNC(=O)c3cc(Br)c[nH]3)C(CNC(=O)c3cc(Br)c[nH]3)[C@@H]2c2cnc(N)[nH]2)[nH]1 (stereo not given in full)
TGI: > 50 µM
--
molecule: COc1ccc(C(=O)O/N=C2/CCCCC2CN(C)C)cc1 (stereo not given)
TGI: > 100 µM
--
molecule: Cn1c(NC(=O)NC23CC4CC(CC(C4)C2)C3)nc2ccccc21
TGI: > 100 µM
--
molecule: c1cncc([O][Ge]([O]c2cccnc2)([O]c2cccnc2)[O]c2cccnc2)c1
TGI: > 100 µM
--
molecule: COc1ccc(/C(CC2OC(=O)c3ccccc32)=N\NC(N)=O)cc1 (stereo not given)
TGI: > 100 µM
--
molecule: COc1ccc2c(c1)[n+](=O)c(C(C)=O)c(C)n2[O-]
TGI: > 100 µM

Enquiry: For HCC-2998 colon, give TGI of the listed molecule: "Cc1nc(Cc2n[nH]c(C)n2)n[nH]1"
Return: > 100 µM

Enquiry: For HCC-2998 colon, give TGI of the listed molecule: "COC(=O)c1ccc2[nH]c(O)c(C(=Nc3ccc(N(C)C(=O)CN4CCN(C)CC4)cc3)c3ccccc3)c2c1"
Return: 18.2 µM

Enquiry: For HCC-2998 colon, give TGI of the listed molecule: COc1ccc(C23OCC(Cc4cc(OC)c(OC)cc42)C3CO)cc1OC (stereo not given)
Return: > 100 µM
